Source: patent USRE50050E1

subject of test: bovine cardiac myosin (Bos taurus, UniProt Q9BE39)
Construct: The source of cardiac myosin was from bovine heart in the form of skinned myofibrils; from tissue; host or cells: bovine heart, skinned myofibrils
Sequence (Q9BE39 whole entry): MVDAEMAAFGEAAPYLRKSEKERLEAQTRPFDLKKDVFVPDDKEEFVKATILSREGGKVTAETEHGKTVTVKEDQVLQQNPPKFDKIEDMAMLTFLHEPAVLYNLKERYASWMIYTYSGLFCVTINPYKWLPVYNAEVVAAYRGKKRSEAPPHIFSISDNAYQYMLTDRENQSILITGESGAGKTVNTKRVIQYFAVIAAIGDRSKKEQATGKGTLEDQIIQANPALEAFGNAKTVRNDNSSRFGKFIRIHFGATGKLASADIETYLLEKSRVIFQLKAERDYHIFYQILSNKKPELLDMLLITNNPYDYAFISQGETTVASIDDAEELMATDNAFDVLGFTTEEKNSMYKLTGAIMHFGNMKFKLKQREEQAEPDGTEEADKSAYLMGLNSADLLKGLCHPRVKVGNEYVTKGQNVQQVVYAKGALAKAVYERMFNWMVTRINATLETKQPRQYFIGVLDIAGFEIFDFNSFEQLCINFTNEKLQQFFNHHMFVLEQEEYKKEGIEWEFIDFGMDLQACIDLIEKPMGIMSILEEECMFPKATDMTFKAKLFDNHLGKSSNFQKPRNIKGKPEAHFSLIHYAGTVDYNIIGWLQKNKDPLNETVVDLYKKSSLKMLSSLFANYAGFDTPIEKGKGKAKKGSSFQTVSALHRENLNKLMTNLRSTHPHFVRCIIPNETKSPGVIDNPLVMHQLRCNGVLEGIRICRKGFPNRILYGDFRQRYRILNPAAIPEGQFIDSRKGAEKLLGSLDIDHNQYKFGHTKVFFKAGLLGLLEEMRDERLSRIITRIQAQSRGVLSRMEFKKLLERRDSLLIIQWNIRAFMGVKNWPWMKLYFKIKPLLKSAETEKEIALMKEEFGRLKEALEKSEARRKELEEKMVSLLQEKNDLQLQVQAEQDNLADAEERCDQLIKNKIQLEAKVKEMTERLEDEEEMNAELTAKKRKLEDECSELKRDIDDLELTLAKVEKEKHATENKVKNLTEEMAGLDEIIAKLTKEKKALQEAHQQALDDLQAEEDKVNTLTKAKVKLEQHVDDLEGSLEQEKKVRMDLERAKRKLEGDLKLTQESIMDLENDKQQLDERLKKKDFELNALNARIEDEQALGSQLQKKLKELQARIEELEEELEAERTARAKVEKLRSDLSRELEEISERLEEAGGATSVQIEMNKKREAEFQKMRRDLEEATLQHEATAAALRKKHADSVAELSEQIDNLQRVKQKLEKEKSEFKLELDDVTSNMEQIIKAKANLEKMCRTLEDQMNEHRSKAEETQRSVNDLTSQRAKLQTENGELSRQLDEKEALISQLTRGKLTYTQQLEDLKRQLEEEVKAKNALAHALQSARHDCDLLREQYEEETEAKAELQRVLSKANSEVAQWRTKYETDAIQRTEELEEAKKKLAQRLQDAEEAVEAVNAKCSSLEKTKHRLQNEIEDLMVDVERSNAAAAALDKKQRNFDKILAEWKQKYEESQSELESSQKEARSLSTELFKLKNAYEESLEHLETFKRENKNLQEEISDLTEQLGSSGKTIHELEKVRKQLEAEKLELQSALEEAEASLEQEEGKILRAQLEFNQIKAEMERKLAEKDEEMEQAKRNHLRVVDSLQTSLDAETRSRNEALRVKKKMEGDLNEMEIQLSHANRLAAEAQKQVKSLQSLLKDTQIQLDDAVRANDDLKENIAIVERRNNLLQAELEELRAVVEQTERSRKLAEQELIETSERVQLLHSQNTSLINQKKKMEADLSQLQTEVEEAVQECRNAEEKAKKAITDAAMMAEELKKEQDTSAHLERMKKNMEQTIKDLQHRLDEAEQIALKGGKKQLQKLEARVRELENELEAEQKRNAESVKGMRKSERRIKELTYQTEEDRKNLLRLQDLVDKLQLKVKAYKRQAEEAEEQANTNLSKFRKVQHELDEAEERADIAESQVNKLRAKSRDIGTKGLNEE
Sequence (P85100 whole entry partner): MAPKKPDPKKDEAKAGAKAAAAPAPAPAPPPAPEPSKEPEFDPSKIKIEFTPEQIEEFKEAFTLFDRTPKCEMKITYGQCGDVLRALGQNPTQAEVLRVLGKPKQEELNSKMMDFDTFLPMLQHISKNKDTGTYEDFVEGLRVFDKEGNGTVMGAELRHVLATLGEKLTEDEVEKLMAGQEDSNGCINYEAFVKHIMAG
Sequence (Q3SZE5 whole entry partner): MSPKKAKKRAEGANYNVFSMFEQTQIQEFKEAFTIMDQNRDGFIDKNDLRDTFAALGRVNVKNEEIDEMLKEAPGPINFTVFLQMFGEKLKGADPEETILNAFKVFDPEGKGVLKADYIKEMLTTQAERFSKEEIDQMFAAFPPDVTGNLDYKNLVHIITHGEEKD
run description: Myosin inhibition assay (PK/LDH-coupled ATPase, bovine cardiac myofibrils)
Type: biochemical
assay context: bovine cardiac myofibrils, calcium giving 75% activation (pCa75); read-out: Biochemical Activity (pCa75)
pIC50: −log10 of the molar value.
Catalogue of pIC50 readings, one per entry.

chemical string | subject of test | pIC50
CC(C)n1c(=O)cc(N[C@@H](C)c2cccc(C(F)(F)F)c2)[nH]c1=O | bovine cardiac myosin (Bos taurus, UniProt Q9BE39) | > 6.00
CC(C)n1c(=O)cc(N[C@@H](C)c2c(F)cccc2F)[nH]c1=O | bovine cardiac myosin (Bos taurus, UniProt Q9BE39) | > 6.00
CC(C)n1c(=O)cc(N[C@@H](C)Cc2ccncc2)[nH]c1=O | bovine cardiac myosin (Bos taurus, UniProt Q9BE39) | 4.82 to 6.00
C[C@H](Nc1cc(=O)n(-c2ccn(C)n2)c(=O)[nH]1)c1ccccc1 | bovine cardiac myosin (Bos taurus, UniProt Q9BE39) | > 6.00
C[C@H](Nc1cc(=O)n(C2CCC2)c(=O)[nH]1)c1ccccc1 | bovine cardiac myosin (Bos taurus, UniProt Q9BE39) | 4.82 to 6.00
CC(C)n1c(=O)cc(N[C@@H](C)c2cc(F)cc(F)c2)[nH]c1=O | bovine cardiac myosin (Bos taurus, UniProt Q9BE39) | > 6.00
C[C@H](Nc1cc(=O)n([C@H](C)COCc2ccccc2)c(=O)[nH]1)c1ccccc1 | bovine cardiac myosin (Bos taurus, UniProt Q9BE39) | 4.82 to 6.00
COc1cccc([C@H](C)Nc2[nH]c(=O)n(C(C)C)c(=O)c2F)c1 | bovine cardiac myosin (Bos taurus, UniProt Q9BE39) | > 6.00
CC(C)n1c(=O)cc(N[C@@H](C)c2cccnc2)[nH]c1=O | bovine cardiac myosin (Bos taurus, UniProt Q9BE39) | 4.82 to 6.00

====

subject of test: bovine cardiac myosin (Bos taurus, UniProt Q9BE39)
Construct: The source of cardiac myosin was from bovine heart in the form of skinned myofibrils; from tissue; host or cells: bovine heart, skinned myofibrils
run description: Myosin inhibition assay (PK/LDH-coupled ATPase, bovine cardiac myofibrils)
Assay type: biochemical
assay context: bovine cardiac myofibrils, calcium giving 75% activation (pCa75); read-out: Biochemical Activity (pCa75)
Catalogue of IC50 readings, one per entry.
measured endpoint: IC50

molecule | subject of test | observed value
C[C@H](Nc1cc(=O)n(-c2ccccc2)c(=O)[nH]1)c1ccccc1 [Compound 45] | bovine cardiac myosin (Bos taurus, UniProt Q9BE39) | < 1 µM
C[C@H](Nc1cc(=O)n(-c2ccno2)c(=O)[nH]1)c1ccccc1 [Compound 40] | bovine cardiac myosin (Bos taurus, UniProt Q9BE39) | < 1 µM
CC(C)[C@H](Nc1cc(=O)n(C(C)C)c(=O)[nH]1)c1ccccc1 [Compound 81] | bovine cardiac myosin (Bos taurus, UniProt Q9BE39) | 1 to 15 µM
CC(C)n1c(=O)cc(N[C@@H](C)c2ccccc2C(F)(F)F)[nH]c1=O [Compound 70] | bovine cardiac myosin (Bos taurus, UniProt Q9BE39) | 1 to 15 µM
CC(C)n1c(=O)cc(N[C@@H](C)c2ccc(F)cc2)[nH]c1=O [Compound 30] | bovine cardiac myosin (Bos taurus, UniProt Q9BE39) | < 1 µM
CC(C)n1c(=O)cc(N[C@@H](C)c2cccc(F)c2)[nH]c1=O [Compound 27] | bovine cardiac myosin (Bos taurus, UniProt Q9BE39) | < 1 µM
CC(C)n1c(=O)cc(N[C@H](c2ccccc2)C(F)(F)F)[nH]c1=O [Compound 52] | bovine cardiac myosin (Bos taurus, UniProt Q9BE39) | < 1 µM
CC(C)n1c(=O)cc(N[C@H](c2ccccc2)C2CCC2)[nH]c1=O [Compound 8] | bovine cardiac myosin (Bos taurus, UniProt Q9BE39) | < 1 µM
CCCn1c(=O)cc(N[C@@H](C)c2ccccc2)[nH]c1=O [Compound 48] | bovine cardiac myosin (Bos taurus, UniProt Q9BE39) | 1 to 15 µM
CC(C)n1c(=O)[nH]c(N[C@@H](C)c2ccccc2)c(Br)c1=O [Compound 3] | bovine cardiac myosin (Bos taurus, UniProt Q9BE39) | < 1 µM
CC(C)n1c(=O)[nH]c(N[C@@H](C)c2cccc(Cl)c2)c(F)c1=O [Compound 4] | bovine cardiac myosin (Bos taurus, UniProt Q9BE39) | < 1 µM
COc1cccc([C@H](C)Nc2cc(=O)n(C(C)C)c(=O)[nH]2)c1 [Compound 21] | bovine cardiac myosin (Bos taurus, UniProt Q9BE39) | < 1 µM
C[C@H](Nc1cc(=O)n(-c2cc(F)cc(F)c2)c(=O)[nH]1)c1ccccc1 [Compound 49] | bovine cardiac myosin (Bos taurus, UniProt Q9BE39) | < 1 µM
C[C@H](Nc1cc(=O)n(C2CCCC2)c(=O)[nH]1)c1ccccc1 [Compound 80] | bovine cardiac myosin (Bos taurus, UniProt Q9BE39) | < 1 µM
CC[C@@H](C)n1c(=O)cc(N[C@@H](C)c2cccc(OC)c2)[nH]c1=O [Compound 14] | bovine cardiac myosin (Bos taurus, UniProt Q9BE39) | < 1 µM
COc1ccccc1[C@H](C)Nc1cc(=O)n(C(C)C)c(=O)[nH]1 [Compound 22] | bovine cardiac myosin (Bos taurus, UniProt Q9BE39) | 1 to 15 µM
COC[C@H](Nc1cc(=O)n(C(C)C)c(=O)[nH]1)c1ccccc1 [Compound 29] | bovine cardiac myosin (Bos taurus, UniProt Q9BE39) | < 1 µM
CC(C)n1c(=O)cc(N[C@@H](C)c2cccc(-n3cccn3)c2)[nH]c1=O [Compound 17] | bovine cardiac myosin (Bos taurus, UniProt Q9BE39) | < 1 µM
